Data credit: patent US20130102595A1

PARAMETER: melting point

// known answers, use as guide
*Q* Returns the measured melting point for the input compound. Input: COc1ccc(-c2nc(N3CCOCC3)c3sc(NS(=O)(=O)c4ccc(/C=C/C(=O)NO)cc4)cc3n2)cn1
*A* > 300 °C

*Q* Follow-up item: COc1ncc(-c2nc(N3CCOCC3)c3sc(CN(C)c4ncc(C(=O)NO)cn4)cc3n2)cn1
*A* 215 to 220 °C

*Q* Follow-up item: CNc1ccc(-c2nc(N3CCOCC3)c3sc(S(=O)(=O)NCC4CCN(c5ncc(C(=O)NO)cn5)CC4)cc3n2)cn1
*A* 190 to 197 °C

*Q* Follow-up item: Nc1ncc(-c2nc(N3CCOCC3)c3sc(NCCCCCC(=O)NO)cc3n2)cn1
*A* 220 to 225 °C

*Q* Follow-up item: CCCN(Cc1cc2nc(-c3cccc4[nH]ncc34)nc(N3CCOCC3)c2s1)c1ncc(C(=O)NO)cn1
*A* 224 to 226 °C

New cases:
*Q* Returns the measured melting point for the input compound. Input: CC(=O)Nc1ccc(-c2nc(N3CCOCC3)c3sc(CN(C)c4ncc(C(=O)NO)cn4)cc3n2)cn1
*A* 197 to 201 °C

*Q* Follow-up item: CC(=O)c1cc(-c2nc(N3CCOCC3)c3sc(CN(C)c4ncc(C(=O)NO)cn4)cc3n2)ccc1N
*A* 156 to 158 °C

*Q* Follow-up item: CN(Cc1cc2nc(-c3ccc(CO)cc3)nc(N3CCOCC3)c2s1)c1ncc(C(=O)NO)cn1
*A* 218 to 223 °C

*Q* Follow-up item: CCNc1ccc(-c2nc(N3CCOCC3)c3sc(CN(C)c4ncc(C(=O)NO)cn4)cc3n2)cc1
*A* 185 to 187 °C

*Q* Follow-up item: O=C(NO)c1cnc(N2CCN(Cc3cc4nc(-c5cccc6[nH]ncc56)nc(N5CCOCC5)c4s3)CC2)nc1
*A* 209 to 221 °C

*Q* Follow-up item: CN(Cc1cc2nc(-c3ccc(CN)cc3)nc(N3CCOCC3)c2s1)c1ncc(C(=O)NO)cn1
*A* 184 to 186 °C

*Q* Follow-up item: CN(C)c1cccc(-c2nc(N3CCOCC3)c3sc(CN(C)c4ncc(C(=O)NO)cn4)cc3n2)c1
*A* 172 to 175 °C

*Q* Follow-up item: CN(Cc1cc2nc(-c3cccc4[nH]ncc34)nc(Nc3ccccn3)c2s1)c1ncc(C(=O)NO)cn1
*A* 200 to 203 °C

*Q* Follow-up item: CN(Cc1cc2nc(-c3ccc(S(C)(=O)=O)cc3)nc(N3CCOCC3)c2s1)c1ncc(C(=O)NO)cn1
*A* 206 to 208 °C

*Q* Follow-up item: CN(Cc1cc2nc(-c3ccc4c(c3)CC(=O)N4)nc(N3CCOCC3)c2s1)c1ncc(C(=O)NO)cn1
*A* 270 °C (dec.)

* * *

# maps each entry to its IC50
- EXPERIMENTAL TARGET: PI3Kα (p110α/p85α) (Homo sapiens)
- Construct: GST (N)
- Sequence (P42336 whole entry): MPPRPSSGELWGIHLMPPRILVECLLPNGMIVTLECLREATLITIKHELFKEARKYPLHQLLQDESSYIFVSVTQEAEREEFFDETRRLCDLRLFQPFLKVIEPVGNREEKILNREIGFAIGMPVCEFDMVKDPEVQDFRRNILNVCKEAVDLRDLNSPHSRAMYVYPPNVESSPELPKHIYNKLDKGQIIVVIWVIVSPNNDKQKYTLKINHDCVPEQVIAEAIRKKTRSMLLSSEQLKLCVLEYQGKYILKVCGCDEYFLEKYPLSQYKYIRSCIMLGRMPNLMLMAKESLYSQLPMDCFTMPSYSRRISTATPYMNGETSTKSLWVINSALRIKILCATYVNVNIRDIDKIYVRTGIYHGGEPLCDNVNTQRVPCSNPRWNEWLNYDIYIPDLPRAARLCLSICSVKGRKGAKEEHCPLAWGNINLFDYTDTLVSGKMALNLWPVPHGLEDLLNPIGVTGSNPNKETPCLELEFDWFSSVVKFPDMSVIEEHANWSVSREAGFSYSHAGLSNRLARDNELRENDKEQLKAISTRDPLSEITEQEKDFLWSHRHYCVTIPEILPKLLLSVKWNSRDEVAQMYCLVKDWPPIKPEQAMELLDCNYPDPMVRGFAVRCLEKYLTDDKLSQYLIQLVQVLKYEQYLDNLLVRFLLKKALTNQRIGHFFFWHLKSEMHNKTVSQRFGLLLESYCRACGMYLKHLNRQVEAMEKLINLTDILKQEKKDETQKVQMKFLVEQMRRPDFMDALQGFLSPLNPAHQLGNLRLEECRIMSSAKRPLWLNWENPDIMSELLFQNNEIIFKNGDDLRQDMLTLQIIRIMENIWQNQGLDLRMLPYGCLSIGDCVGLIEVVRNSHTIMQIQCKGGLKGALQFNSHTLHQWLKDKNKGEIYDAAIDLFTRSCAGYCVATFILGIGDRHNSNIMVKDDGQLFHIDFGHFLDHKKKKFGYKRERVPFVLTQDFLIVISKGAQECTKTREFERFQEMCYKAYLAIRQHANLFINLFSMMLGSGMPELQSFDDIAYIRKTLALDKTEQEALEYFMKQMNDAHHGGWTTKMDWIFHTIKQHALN
- Sequence (P27986 whole entry partner): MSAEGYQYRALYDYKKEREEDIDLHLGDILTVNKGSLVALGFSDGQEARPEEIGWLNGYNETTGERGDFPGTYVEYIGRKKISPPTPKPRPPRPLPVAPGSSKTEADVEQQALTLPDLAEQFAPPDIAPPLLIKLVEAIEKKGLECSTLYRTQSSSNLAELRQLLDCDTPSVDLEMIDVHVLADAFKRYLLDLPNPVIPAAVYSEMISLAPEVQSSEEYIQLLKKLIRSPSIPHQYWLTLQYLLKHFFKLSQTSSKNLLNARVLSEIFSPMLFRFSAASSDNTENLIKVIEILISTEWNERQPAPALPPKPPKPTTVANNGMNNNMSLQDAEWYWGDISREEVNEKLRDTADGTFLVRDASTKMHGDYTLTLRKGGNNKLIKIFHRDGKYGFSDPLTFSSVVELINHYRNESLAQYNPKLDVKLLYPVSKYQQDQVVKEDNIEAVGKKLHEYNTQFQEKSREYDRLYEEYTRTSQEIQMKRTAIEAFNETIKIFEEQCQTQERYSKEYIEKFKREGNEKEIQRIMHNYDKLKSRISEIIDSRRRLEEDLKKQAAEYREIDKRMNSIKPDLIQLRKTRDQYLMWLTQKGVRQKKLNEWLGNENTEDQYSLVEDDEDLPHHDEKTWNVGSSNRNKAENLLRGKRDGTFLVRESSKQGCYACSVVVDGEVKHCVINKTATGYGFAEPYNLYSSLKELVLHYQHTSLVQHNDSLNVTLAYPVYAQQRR
- EXPERIMENT: PI3Kα ADP-Glo assay
- TEST PARAMETERS: 20 μM PIP2, 10 μM ATP, 30 minutes

*Q* // fetch PI3Kα (p110α/p85α) (Homo sapiens) IC50 for CN(Cc1cc2nc(-c3cnc(OCc4ccccc4)nc3)nc(N3CCOCC3)c2s1)c1ncc(C(=O)NO)cn1 [Compound 266]
*A* 100 to 1000 nM
